Target: CK2α (Homo sapiens)
Sequence (P68400 2-329): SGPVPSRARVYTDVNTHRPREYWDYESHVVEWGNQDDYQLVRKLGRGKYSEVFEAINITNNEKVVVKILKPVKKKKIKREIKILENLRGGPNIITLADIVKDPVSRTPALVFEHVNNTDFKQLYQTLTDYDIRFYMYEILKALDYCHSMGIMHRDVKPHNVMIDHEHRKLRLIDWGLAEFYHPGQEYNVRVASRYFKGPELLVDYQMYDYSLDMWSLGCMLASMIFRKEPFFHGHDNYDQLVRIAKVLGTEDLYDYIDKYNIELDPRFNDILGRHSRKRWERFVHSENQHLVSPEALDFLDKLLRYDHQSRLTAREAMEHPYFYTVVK
Record form. Attribute: pIC50. Fill in for each entry.
Give bare numbers, as −log10 of the molar value.

Some compounds with recorded pIC50:
>  <smiles.text>
O=C(CNCCCCNCc1ccc(OC(F)(F)F)c(Cl)c1)Nc1cc(-n2cnnc2)cc2[nH]ncc12

>  <measured.target>
CK2α (Homo sapiens)

>  <pIC50>
8.08

$$$$
>  <smiles.text>
O=C(CCNCc1ccc(OC(F)(F)F)c(Cl)c1)NCCCNc1cc(-c2nnc[nH]2)cc2[nH]ncc12

>  <measured.target>
CK2α (Homo sapiens)

>  <pIC50>
8.13

$$$$
>  <smiles.text>
FC(F)(F)Oc1ccc(CNCCCCOCCNc2cc(-n3cnnc3)cc3[nH]nnc23)cc1Cl

>  <measured.target>
CK2α (Homo sapiens)

>  <pIC50>
7.96

$$$$
>  <smiles.text>
FC(F)(F)Oc1ccc(CNCCCCOC2CN(c3cc(-n4cnnc4)cc4[nH]ncc34)C2)cc1Cl

>  <measured.target>
CK2α (Homo sapiens)

>  <pIC50>
7.96

$$$$
>  <smiles.text>
N#Cc1cc(-c2cc(NCCCNC(=O)CCNCc3ccc(OC(F)(F)F)c(Cl)c3)c3cn[nH]c3c2)cnn1

>  <measured.target>
CK2α (Homo sapiens)

>  <pIC50>
8.06

$$$$

As a next step, examine the compound that follows.
For "Fc1cc(CNCCCCOCCNc2cc(-c3ccncc3)c(F)c3[nH]ncc23)cc(F)c1OC(F)(F)F" on CK2α (Homo sapiens), measured pIC50 was 8.22
